Test: Cytotoxicity against mouse RAW264.7 cells at 50 uM after 72 hrs by MTT assay
Type: cell-based
Conditions: read-out: INH
Property Label: cytotoxicity at 72 h, 50 µM
A complete answer gives the number and then names the unit.

Compound Structure String	cytotoxicity at 72 h, 50 µM
O=C(Cn1c(=O)oc2ccccc21)Nc1ncc([N+](=O)[O-])s1	25%

For reference, reported cytotoxicity at 72 h, 50 µM for O=C(Cn1c(=O)oc2cc(Cl)ccc21)Nc1ccccn1 stands at 33%

For reference, reported cytotoxicity at 72 h, 50 µM for O=C(Cn1c(=O)oc2cc(Cl)ccc21)NCc1ccco1 stands at 27.8%

For reference, reported cytotoxicity at 72 h, 50 µM for O=C(Cn1c(=O)oc2ccccc21)Nc1nc2ccccc2s1 stands at 43.5%

====

Tested on: Mycobacterium tuberculosis
Assay: Antimicrobial activity against Mycobacterium tuberculosis H37Rv ATCC 27294 after 28 days by two-fold agar dilution method in presence of verapamil
Assay type: functional
Settings: H37Rv ATCC 27294, 672 h
Binarize MIC at 20 µM; below is 1 (yes), at or above is 0 (no).

Compound Structure String	Class Label
O=C(Cn1c(=O)oc2ccccc21)NCc1ccco1	0 (no)

Report whether reported MIC is lower than 20 µM (strictly) for O=C(Cn1c(=O)oc2cc(Cl)ccc21)Nc1nc2ccc([N+](=O)[O-])cc2s1 1 (yes)

Report whether reported MIC is lower than 20 µM (strictly) for O=C(Cn1c(=O)oc2ccccc21)Nc1ccccc1 0 (no)

Report whether reported MIC is lower than 20 µM (strictly) for O=C(Cn1c(=O)oc2cc([N+](=O)[O-])ccc21)Nc1cc(C(F)(F)F)ccc1Cl 1 (yes)

Report whether reported MIC is lower than 20 µM (strictly) for O=C(Cn1c(=O)oc2ccccc21)NCc1cccs1 1 (yes)

Report whether reported MIC is lower than 20 µM (strictly) for O=C(Cn1c(=O)oc2ccccc21)NCc1ccccn1 0 (no)

Report whether reported MIC is lower than 20 µM (strictly) for O=C(Cn1c(=O)oc2ccccc21)Nc1ccccn1 1 (yes)

Report whether reported MIC is lower than 20 µM (strictly) for O=C(Cn1c(=O)oc2cc([N+](=O)[O-])ccc21)Nc1nc2ccc([N+](=O)[O-])cc2s1 1 (yes)

Report whether reported MIC is lower than 20 µM (strictly) for O=C(Cn1c(=O)oc2cc(Cl)ccc21)Nc1ccccc1 0 (no)

Report whether reported MIC is lower than 20 µM (strictly) for O=C(Cn1c(=O)oc2cc([N+](=O)[O-])ccc21)NCc1cccs1 1 (yes)

Report whether reported MIC is lower than 20 µM (strictly) for O=C(Cn1c(=O)oc2cc([N+](=O)[O-])ccc21)NCc1ccccn1 0 (no)

====

Assay: Cytotoxicity against mouse RAW264.7 cells at 100 uM after 72 hrs by MTT assay
Format: cell-based
Details: read-out: INH
Note: every record was labeled by where its cytotoxicity at 72 h, 100 µM sits among low (below 30%), medium (30% to below 50%), high (50% or more)

Please review the entries below; each comes with its answer.
Compound Structure String	Class Label
O=C(Cn1c(=O)oc2ccccc21)Nc1nc2ccc([N+](=O)[O-])cc2s1	low
O=C(Cn1c(=O)oc2cc([N+](=O)[O-])ccc21)Nc1ncc([N+](=O)[O-])s1	medium

Bin? O=C(Cn1c(=O)oc2ccccc21)Nc1ncc([N+](=O)[O-])s1 medium

Bin? O=C(Cn1c(=O)oc2cc([N+](=O)[O-])ccc21)Nc1ccccn1 medium

Bin? O=C(Cn1c(=O)oc2ccccc21)Nc1nc2ccccc2s1 high

Bin? O=C(Cn1c(=O)oc2cc([N+](=O)[O-])ccc21)Nc1nc2ccccc2s1 high

====

As shown below, each of these molecules has a reported IC50 value.
Biological target: UniProt:P9WGR1
Sequence (P9WGR1 whole entry): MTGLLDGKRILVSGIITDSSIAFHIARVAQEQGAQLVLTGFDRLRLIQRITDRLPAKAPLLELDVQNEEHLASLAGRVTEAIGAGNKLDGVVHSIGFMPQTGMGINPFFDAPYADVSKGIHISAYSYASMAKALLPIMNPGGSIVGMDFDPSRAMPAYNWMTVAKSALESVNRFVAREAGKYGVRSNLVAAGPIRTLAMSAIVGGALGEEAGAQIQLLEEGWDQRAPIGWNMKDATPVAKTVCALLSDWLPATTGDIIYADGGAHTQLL
Experiment: Inhibition of Mycobacterium tuberculosis recombinant His6-tagged InhA expressed in Escherichia coli BL21(DE3) using 2-trans-decenoyl-CoA as substrate incubated for 2 hrs prior to substrate addition by spectrophotometry
Give the quantity in µM, number only.

In the examples that follow, each entry is paired with its recorded IC50.
Compound Structure String	Display Unit	IC50
O=C(Cn1c(=O)oc2cc([N+](=O)[O-])ccc21)Nc1ncc([N+](=O)[O-])s1	µM	5.12
O=C(Cn1c(=O)oc2cc(Cl)ccc21)Nc1nc2ccccc2s1	µM	8.9
O=C(Cn1c(=O)oc2cc([N+](=O)[O-])ccc21)Nc1nc2ccccc2s1	µM	7.62
O=C(Cn1c(=O)oc2cc(Cl)ccc21)Nc1ncc([N+](=O)[O-])s1	µM	6.82

Sample O=C(Cn1c(=O)oc2cc([N+](=O)[O-])ccc21)NCc1ccccn1 , system: UniProt:P9WGR1. Its IC50 is 8.23

Sample O=C(Cn1c(=O)oc2ccccc21)Nc1cc(Cl)ccc1Cl , system: UniProt:P9WGR1. Its IC50 is 22.1

====

As shown below, each of these compounds has a reported inhibition value.
Target: UniProt P9WGR1
Test: Inhibition of Mycobacterium tuberculosis recombinant His6-tagged InhA expressed in Escherichia coli BL21(DE3) using 2-trans-decenoyl-CoA as substrate at 10 uM incubated for 2 hrs prior to substrate addition by spectrophotometry

Compound Structure String	Study System	inhibition
O=C(Cn1c(=O)oc2ccccc21)NCc1cccs1	UniProt P9WGR1	26.1%
O=C(Cn1c(=O)oc2ccccc21)Nc1cccc(Cl)c1	UniProt P9WGR1	17%
O=C(Cn1c(=O)oc2cc([N+](=O)[O-])ccc21)NCc1ccccn1	UniProt P9WGR1	68.1%
O=C(Cn1c(=O)oc2cc([N+](=O)[O-])ccc21)Nc1nc2ccc([N+](=O)[O-])cc2s1	UniProt P9WGR1	51.7%
O=C(Cn1c(=O)oc2cc(Cl)ccc21)Nc1ccccn1	UniProt P9WGR1	51.6%

For reference, reported inhibition for O=C(Cn1c(=O)oc2ccccc21)Nc1ccccc1 stands at 32.4%

For reference, reported inhibition for O=C(Cn1c(=O)oc2cc([N+](=O)[O-])ccc21)NCc1cccs1 stands at 35.7%

For reference, reported inhibition for O=C(Cn1c(=O)oc2cc(Cl)ccc21)Nc1nc2ccccc2s1 stands at 58.2%

For reference, reported inhibition for O=C(Cn1c(=O)oc2cc(Cl)ccc21)Nc1cc(C(F)(F)F)ccc1Cl stands at 40.1%

====

As shown below, each of these molecules has a reported MIC value.
System: Mycobacterium tuberculosis
Assay: Antimicrobial activity against Mycobacterium tuberculosis H37Rv ATCC 27294 after 28 days by two-fold agar dilution method in presence of verapamil
Type: functional
Details: H37Rv ATCC 27294, 672 h
Give the quantity in µM, number only.

In the examples that follow, each entry is paired with its recorded MIC.
Compound Structure String	Display Unit	Numeric Readout
O=C(Cn1c(=O)oc2cc([N+](=O)[O-])ccc21)Nc1ncc([N+](=O)[O-])s1	µM	8.55
O=C(Cn1c(=O)oc2cc(Cl)ccc21)NCc1cccs1	µM	9.64
O=C(Cn1c(=O)oc2ccccc21)Nc1nc2ccc([N+](=O)[O-])cc2s1	µM	8.43
O=C(Cn1c(=O)oc2ccccc21)Nc1nc2ccccc2s1	µM	9.6
O=C(Cn1c(=O)oc2cc([N+](=O)[O-])ccc21)Nc1ccccc1	µM	19.9
O=C(Cn1c(=O)oc2cc(Cl)ccc21)Nc1nc2ccccc2s1	µM	8.68
O=C(Cn1c(=O)oc2cc([N+](=O)[O-])ccc21)NCc1ccco1	µM	39.4
O=C(Cn1c(=O)oc2ccccc21)Nc1ncc([N+](=O)[O-])s1	µM	39

For reference, reported MIC for O=C(Cn1c(=O)oc2cc(Cl)ccc21)Nc1cc(C(F)(F)F)ccc1Cl stands at 15.4

For reference, reported MIC for O=C(Cn1c(=O)oc2ccccc21)Nc1cc(C(F)(F)F)ccc1Cl stands at 33.7

For reference, reported MIC for O=C(Cn1c(=O)oc2cc(Cl)ccc21)Nc1ccccn1 stands at 10.3

For reference, reported MIC for O=C(Cn1c(=O)oc2cc(Cl)ccc21)Nc1ncc([N+](=O)[O-])s1 stands at 8.81

====

Assay: Cytotoxicity against mouse RAW264.7 cells at 50 uM after 72 hrs by MTT assay
Type: cell-based
Details: read-out: INH
As shown below, each of these compounds has a reported cytotoxicity at 72 h, 50 µM value.
Give the quantity in %, number only.

In the examples that follow, each entry is paired with its recorded cytotoxicity at 72 h, 50 µM.
Compound Structure String	Display Unit	cytotoxicity at 72 h, 50 µM
O=C(Cn1c(=O)oc2cc(Cl)ccc21)NCc1cccs1	%	20.3
O=C(Cn1c(=O)oc2ccccc21)Nc1ccccn1	%	20.2
O=C(Cn1c(=O)oc2cc([N+](=O)[O-])ccc21)Nc1nc2ccc([N+](=O)[O-])cc2s1	%	14.8
O=C(Cn1c(=O)oc2cc([N+](=O)[O-])ccc21)Nc1ccccc1	%	18
O=C(Cn1c(=O)oc2ccccc21)NCc1ccccn1	%	37.3
O=C(Cn1c(=O)oc2ccccc21)NCc1ccco1	%	32.8
O=C(Cn1c(=O)oc2ccccc21)NCc1cccs1	%	23.4
O=C(Cn1c(=O)oc2ccccc21)Nc1ccccc1	%	35.1
O=C(Cn1c(=O)oc2cc(Cl)ccc21)Nc1ccccc1	%	15.8
O=C(Cn1c(=O)oc2cc([N+](=O)[O-])ccc21)Nc1cc(C(F)(F)F)ccc1Cl	%	12.8

Pending compound:
For reference, reported cytotoxicity at 72 h, 50 µM for O=C(Cn1c(=O)oc2cc([N+](=O)[O-])ccc21)Nc1ncc([N+](=O)[O-])s1 stands at 20.2
